Molecular target: UniProtKB P56817
Sequence (P56817 46-501, species assumed): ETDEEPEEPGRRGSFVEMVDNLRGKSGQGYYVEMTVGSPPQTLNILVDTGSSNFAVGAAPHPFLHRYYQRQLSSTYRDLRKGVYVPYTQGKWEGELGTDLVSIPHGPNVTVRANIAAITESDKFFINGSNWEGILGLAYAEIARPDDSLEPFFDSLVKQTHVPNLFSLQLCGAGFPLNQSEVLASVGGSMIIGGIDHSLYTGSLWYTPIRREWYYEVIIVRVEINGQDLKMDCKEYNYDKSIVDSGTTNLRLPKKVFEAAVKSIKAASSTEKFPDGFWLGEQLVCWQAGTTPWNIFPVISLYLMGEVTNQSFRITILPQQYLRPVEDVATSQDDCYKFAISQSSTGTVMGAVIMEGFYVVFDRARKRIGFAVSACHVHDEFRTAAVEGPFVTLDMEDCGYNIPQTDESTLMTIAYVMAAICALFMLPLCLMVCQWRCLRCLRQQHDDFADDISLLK
Test: In vitro BACE cell-based assay (Aβ40 in conditioned medium, sandwich ELISA)
OBSERVED PROPERTY: IC50

Known IC50 results, listed for orientation:
1) N#Cc1ccc(C(=O)Nc2cc(Cl)c(F)c([C@@]3(CF)N=C(N)O[C@@H]4C[C@@H]43)c2)nc1	0.0098 µM
2) N#Cc1cnc2c(Nc3ccc(Cl)c([C@@]4(CF)N=C(N)O[C@@H]5C[C@@H]54)c3)ncc(F)c2c1	0.13 µM
3) N#Cc1csc(C(=O)Nc2ccc(F)c([C@@]3(C(F)F)N=C(N)O[C@@H]4C[C@@H]43)c2)c1	1.56 µM
4) C[C@]1(c2nc(NC(=O)c3ncc(Cl)cc3Cl)ccc2F)N=C(N)O[C@@H]2C[C@@H]21	0.0116 µM
5) NC1=N[C@@](c2cc(NC(=O)c3ccc(OCC(F)(F)F)cn3)ccc2F)(C(F)F)[C@H]2C[C@H]2O1	0.296 µM
6) CC#CCOc1cnc(C(=O)Nc2ccc(F)c([C@@]3(CF)N=C(N)O[C@@H]4C[C@@H]43)c2)cn1	0.0005 µM
7) NC1=N[C@@](c2cc(-c3nnc(-c4ccc(F)cc4)[nH]3)ccc2F)(C(F)F)[C@H]2C[C@H]2O1	> 15.6 µM
8) NC1=N[C@@](c2cc(NCC3(C(F)(F)F)CC3)ccc2F)(C(F)F)[C@H]2C[C@H]2O1	1.15 µM
9) CC#CCOc1cnc(C(=O)Nc2cc(F)c(F)c(C3(CF)N=C(N)O[C@H]4C[C@H]43)c2)cn1 (stereo in doubt)	0.176 µM
10) NC1=N[C@@](c2cc(NC(=O)c3cnc(OCc4cnco4)cn3)ccc2F)(C(F)F)[C@H]2C[C@H]2O1	0.323 µM

Asked: Query for UniProtKB P56817: what IC50 does the record show for NC1=N[C@@](c2cc(NC[C@@H]3C[C@H]3c3ccccc3)ccc2F)(C(F)F)[C@H]2C[C@H]2O1 ?
Given back: 2.67 µM

Asked: Query for UniProtKB P56817: what IC50 does the record show for N#Cc1cnc2c(Nc3cc(F)c(F)c([C@]4(C(F)F)N=C(N)O[C@H]5C[C@H]54)c3)ncc(F)c2c1 ?
Given back: > 16 µM

The reported measurements were obtained from patent US9085576B2.
